Test system: U251 CNS
protocol: NCI-60 one-dose screen, 48 h (100 = growth as untreated, 0 = no growth, -100 = all killed)
run-conditions: 10 µM unless noted
This is part of a sample that, as a whole, favours compounds with a hit. Of some 83,000 tested, about 20% had one in any assay.
test-readout: growth (%)
Answer in %, number only, no unit symbol.

For orientation, consider the following solved cases.
                                   compound  value_reported
0              O=C(N/N=C/c1ccccc1O)c1ccncc1            39.2
1  CCN1C(=O)/C(=C/N2N=C(c3ccc(Cl)cc3)CC2c2ccc(OC)cc2)SC1=S (stereo unspecified)            81.9
2                  NC(N)=N/N=C/c1ccc(Cl)cc1            88.8
3   C[C@H](NC(=O)c1snnc1C1CC1)c1c(F)cccc1Cl              90

Query for U251 CNS: what growth does the record show for O=C(N/N=C\c1cc(Br)ccc1O)c1ccncc1 ? 28.6

State its growth on U251 CNS: COc1ccccc1-[n+]1cc(-c2ccc(-c3ccccc3)cc2)n2c1CCCCC2 10.6

* * *

System: RPMI-8226 leukemia
protocol: NCI-60 one-dose screen, 48 h
run-conditions: 10 µM unless noted
About 83,000 compounds went through this panel and 20% of them were active in at least one assay; those are over-represented in the sample as a whole. Active and inactive are the calls of the source. How the source made its calls: active means growth percent below 10; inactive means the rest.
One label from this list, please: true (1) (active), false (0) (inactive)

The examples below pair each entry with its known result.
compound	assigned-label
N/C(=N\OC(=O)c1ccccc1)C(C(=O)NOC(=O)c1ccccc1)C1CCCCC1 (stereo not given)	false (0)
CC(C)(C)c1cc(C[P+](c2ccccc2)(c2ccccc2)c2ccccc2)cc(C(C)(C)C)c1O	true (1)
CC1=C(/C=C/C(C)=C/C=C(C(=O)O)\C(C)=C\C(=O)O)C(C)(C)CCC1	false (0)
COc1cc(-c2nc(-c3ccc(-c4nc5ccc(F)cc5[nH]4)cc3)no2)cc(OC)c1OC	true (1)
C=C(COC(C)=O)[C@H]1CC/C(C)=C/CC/C(C)=C/CC[C@@]2(C)O[C@H]2C1	false (0)
CCC1=CC2CN(C1)Cc1c([nH]c3ccccc13)[C@@](C(=O)OC)(c1cc3c(cc1OC)N(C)[C@H]1[C@@](O)(C(=O)OC)[C@H](OC(C)=O)[C@]4(CC)C=CCN5CC[C@]31[C@@H]54)C2 (stereo not given in full)	false (0)
O=C(CC(=O)c1ccccc1F)Nc1ccc([N+](=O)[O-])cc1	false (0)
CCN(C(=O)CCl)C(C)(C)C(SSSC(c1ccc(Cl)cc1)C(C)(C)N(CC)C(=O)CCl)c1ccc(Cl)cc1 (stereo not given)	false (0)
CCN(CC)CC(=O)Nc1c(C)ccc(N)c1C	false (0)
COc1cc(OC)c(C(=O)/C=C/c2cccc(OC(C)=O)c2)cc1CC=C(C)C	true (1)

Entry Cc1ccc2c(C)c3c(ccc4ccccc43)c[n+]2c1 : call = ? false (0)

What is the recorded call for this compound in the test? Cc1ccc(C)c2c1SC1=NNC(Oc3ccc(Cl)cc3)=C(C#N)C(=N)N12 false (0)

What was the test verdict on O=C(c1ccc(OCCN2CCCCC2)cc1)c1c(-c2ccc(O)cc2)sc2cc(O)ccc12 ? false (0)

I would be grateful if you could indicate the recorded call for CCCCCN(CCCCC)C(=O)C(CCC(=O)O)NC(=O)c1ccc(Cl)c(Cl)c1 (stereo not given) . false (0)

Look up the recorded call for COc1cc(C2CC(c3ccccc3)=NN2C=O)ccc1Oc1ccnc2cc(Cl)ccc12 (stereo not given) in this test. false (0)

Which outcome was entered for the compound CC(C)(C)c1nn(-c2ccccc2)c2c1C(=O)CSC(c1ccccc1Cl)N2 (stereo not given) in this test? false (0)

Lab log entry: O=C(/C=C/c1ccc(F)cc1)N1CCN(C(=O)/C=C/c2ccc(C(F)(F)F)cc2)CC1 — outcome as called in the assay? false (0)

Outcome? CCCNCCC(C)=O false (0)

Check the results log: what was the call for COC(=O)[C@H](Cc1cn(C)cn1)NC(=O)[C@H](CC(C)C)NC(=O)Nc1cc(C(F)(F)F)cc(C(F)(F)F)c1 ? true (1)

Which result was noted for this compound in the test: COc1cc(/C=C2\CN(C(=O)OC(C)(C)C)C/C(=C\c3ccc(O)c(OC)c3)C2=O)ccc1O false (0)
